test system: Phytophthora infestans; assay type: in vivo; conditions: tomato plants, protective spray, active ingredient concentration 100 ppm, evaluation 7 days after inoculation; 0% = control, 100% = no infection
recorded-endpoint: Eff. % (%)

- CCON=Cc1ccccc1C1CC(c2csc(C3CCN(C(=O)Cn4nc(C(F)F)cc4C(F)F)CC3)n2)=NO1 (mixture of isomers): 100
- Cc1cc(C(F)(F)F)nn1CC(=O)N1CCC(c2nc(C3=NOC(c4cccc(OS(=O)(=O)C5CC5)c4)C3)cs2)CC1 (stereo not shown): 100
- CC(C)ON=Cc1cccc(C2CC(c3csc(C4CCN(C(=O)Cn5nc(C(F)F)cc5C(F)F)CC4)n3)=NO2)c1 (mixture of isomers): 100
- CCS(=O)(=O)Oc1cccc(C2CC(c3csc(C4CCN(C(=O)Cn5nc(C(F)F)cc5C(F)F)CC4)n3)=NO2)c1 (stereo not shown): 98

====

conditions: pH 7.8
Each entry below lists one item and its recorded logp [b] value.
recorded-endpoint: logp [b]

• O=C(Cn1nc(C(F)F)cc1C(F)F)N1CCC(c2nc(C3=NOC(c4ccccc4OC(=O)C4(Cl)CC4)C3)cs2)CC1 (stereo not shown) [I-107] = 3.57[b]
• O=C(Cn1nc(C(F)F)cc1C(F)F)N1CCC(c2nc(C3=NOC(c4ccccc4OS(=O)(=O)C4CC4)C3)cs2)CC1 (stereo not shown) [I-64] = 3.32[b]
• C#CCN(C=O)c1ccccc1C1CC(c2csc(C3CCN(C(=O)Cn4nc(C(F)F)cc4C(F)F)CC3)n2)=NO1 (stereo not shown) [I-117] = 2.67[b]
• O=C(Oc1ccccc1C1CC(c2csc(C3CCN(C(=O)Cn4nc(C(F)F)cc4C(F)F)CC3)n2)=NO1)c1cccc(F)c1 (stereo not shown) [I-129] = 3.7[b]
• Cc1cc(C(F)F)nn1CC(=O)N1CCC(c2nc(C3=NOC(c4ccccc4OCC#N)C3)cs2)CC1 (stereo not shown) [I-143] = 2.61[b]
• CS(=O)(=O)Oc1ccc(Cl)cc1C1CC(c2csc(C3CCN(C(=O)Cn4nc(C(F)F)cc4C(F)F)CC3)n2)=NO1 (racemic) [I-59] = 3.25[b]
• COc1ccc(OS(C)(=O)=O)c(C2(C)CC(c3csc(C4CCN(C(=O)Cn5nc(C(F)F)cc5C(F)F)CC4)n3)=NO2)c1OC (stereo not shown) [I-92] = 3.25[b]

====

test system: Phytophthora infestans; assay type: in vivo; conditions: tomato plants, protective spray, active ingredient concentration 100 ppm, evaluation 7 days after inoculation; 0% = control, 100% = no infection
Eff. % listing for selected compounds.
recorded-endpoint: Eff. % (%)

- CC(C)ON=Cc1ccccc1C1CC(c2csc(C3CCN(C(=O)Cn4nc(C(F)F)cc4C(F)F)CC3)n2)=NO1 (mixture of isomers): 100
- Cc1cc(C(F)(F)F)nn1CC(=O)N1CCC(c2nc(C3=NOC(c4ccccc4OCC#N)C3)cs2)CC1 (centres unmarked): 84
- CC(=NOC(C)C)c1cccc(C2CC(c3csc(C4CCN(C(=O)Cn5nc(C(F)(F)F)cc5C)CC4)n3)=NO2)c1 (mixture of isomers): 100
- Cc1ccc(S(=O)(=O)Oc2ccccc2C2(C)CC(c3csc(C4CCN(C(=O)Cn5nc(C(F)F)cc5C)CC4)n3)=NO2)cc1 (racemic): 94
- CC(=NOC(C)C)c1cccc(C2CC(c3csc(C4CCN(C(=O)Cn5nc(C(F)F)cc5C(F)F)CC4)n3)=NO2)c1 (mixture of isomers): 100
- Cc1cc(C(F)(F)F)nn1CC(=O)N1CCC(c2nc(C3=NOC(c4ccccc4OS(=O)(=O)C(F)(F)F)C3)cs2)CC1 (centres unmarked): 89
- CC(=O)OCc1ccccc1C1CC(c2csc(C3CCN(C(=O)Cn4nc(C(F)F)cc4C(F)F)CC3)n2)=NO1 (racemic): 94
- Cc1cc(C(F)(F)F)nn1CC(=O)N1CCC(c2nc(C3=NOC(c4ccccc4NC=O)C3)cs2)CC1 (centres unmarked): 100
- O=C(Cn1nc(C(F)F)cc1C(F)F)N1CCC(c2nc(C3=NOC(c4ccccc4OS(=O)(=O)C4CC4)C3)cs2)CC1 (centres unmarked): 100
- O=CNc1ccccc1C1CC(c2csc(C3CCN(C(=O)Cn4nc(C(F)F)cc4C(F)F)CC3)n2)=NO1 (centres unmarked): 100
- CON=C(C)c1cccc(C2CC(c3csc(C4CCN(C(=O)Cn5nc(C(F)F)cc5C(F)F)CC4)n3)=NO2)c1 (mixture of isomers): 100
- N#CCCn1cccc1C1CC(c2csc(C3CCN(C(=O)Cn4nc(C(F)F)cc4C(F)F)CC3)n2)=NO1 (centres unmarked): 80
- C#CCOCc1ccccc1C1CC(c2csc(C3CCN(C(=O)Cn4nc(C(F)(F)F)cc4C)CC3)n2)=NO1 (racemic): 94
- COCCS(=O)(=O)Cc1ccccc1C1CC(c2csc(C3CCN(C(=O)Cn4nc(C(F)F)cc4C(F)F)CC3)n2)=NO1 (racemic): 94
- O=C(Oc1ccccc1C1CC(c2csc(C3CCN(C(=O)Cn4nc(C(F)F)cc4C(F)F)CC3)n2)=NO1)c1cccc(F)c1 (centres unmarked): 98
- N#CCOc1cc(Cl)ccc1C1CC(c2csc(C3CCN(C(=O)Cn4nc(C(F)F)cc4C(F)F)CC3)n2)=NO1 (centres unmarked): 100
- CC(=NO)c1cccc(C2CC(c3csc(C4CCN(C(=O)Cn5nc(C(F)(F)F)cc5C)CC4)n3)=NO2)c1 (mixture of isomers): 100
